These measurements were taken from paper PMC12195677.

test: CellTiter-Glo cell viability assay, non-neoplastic BJ fibroblasts; format: cell-based; settings: BJ fibroblast cells (non-neoplastic, ATCC CRL-2522), non-neoplastic human BJ fibroblasts, mean ± SD, read-out: Cytotoxicity IC50, BJ
Readout: IC50 at 72 h (µM)

[
  {
    "Structure as smiles": "CC(C)c1cc2c(cc1O)[C@@]1(C)CCC[C@@](C)(CN3C(=O)c4ccc(F)cc4C3=O)[C@@H]1CC2",
    "Unit string": "µM",
    "Comparison operator": ">",
    "Reported measurement": 50
  },
  {
    "Structure as smiles": "COc1ccc2c(c1)C(=O)N(C[C@]1(C)CCC[C@]3(C)c4cc(O)c(C(C)C)cc4CC[C@@H]13)C2=O",
    "Unit string": "µM",
    "Comparison operator": "=",
    "Reported measurement": 58.9
  },
  {
    "Structure as smiles": "CC(C)c1cc2c(cc1O)[C@@]1(C)CCC[C@@](C)(CN3C(=O)c4cccc(F)c4C3=O)[C@@H]1CC2",
    "Unit string": "µM",
    "Comparison operator": "=",
    "Reported measurement": 63.5
  },
  {
    "Structure as smiles": "COc1cccc2c1C(=O)N(C[C@]1(C)CCC[C@]3(C)c4cc(O)c(C(C)C)cc4CC[C@@H]13)C2=O",
    "Unit string": "µM",
    "Comparison operator": "=",
    "Reported measurement": 61.2
  }
]

* * *

tested on: SUM149; assay: CellTiter-Glo cell viability/proliferation assay, SUM149; format: cell-based, Human; conditions: Homo sapiens, SUM149; 72 h incubation, CellTiter-Glo, mean ± SD; read-out: Cytotoxicity IC50, SUM149

[
  {
    "Structure as smiles": "CC(C)c1cc2c(cc1O)[C@@]1(C)CCC[C@@](C)(CN3C(=O)c4cccc(F)c4C3=O)[C@@H]1CC2",
    "IC50": "4.8 µM"
  },
  {
    "Structure as smiles": "COc1cccc2c1C(=O)N(C[C@]1(C)CCC[C@]3(C)c4cc(O)c(C(C)C)cc4CC[C@@H]13)C2=O",
    "IC50": "5.3 µM"
  },
  {
    "Structure as smiles": "CC(C)c1cc2c(cc1O)[C@@]1(C)CCC[C@@](C)(CN3C(=O)c4ccc(F)cc4C3=O)[C@@H]1CC2",
    "IC50": "4.3 µM"
  },
  {
    "Structure as smiles": "COc1ccc2c(c1)C(=O)N(C[C@]1(C)CCC[C@]3(C)c4cc(O)c(C(C)C)cc4CC[C@@H]13)C2=O",
    "IC50": "4.3 µM"
  }
]
